Exercise: for every item that follows, state its recorded protein stability index.
B1: DFFB (parent)
chain: TLVEAIKEQDGREVDWEYFYGLLF

# Variants of: B1
# assay-procedure: protein stability index of a GFP-peptide fusion (GPS, HEK-293T) (PSI 1-6); higher = more stable;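 also: lentivirally expressed fusions sorted by FACS into six bins by GFP to DsRed ratio, PSI derived from sequencing read proportions per bin multiplied by bin number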
# measurement-conditions: c terminus: a fixed tail appended
Give bare numbers.

Illustrative cases are given below, each with its answer.
In [3]: df
Out[3]:
   variant_key  recorded_value
0          K7T            2.19
1         F24I            1.93
2         G21L            1.35
3         E13M            2.02
4         R12S            1.84
5          E4I            1.57

For each of the variants below, state protein stability index.
1. Y20I
2. L22S
3. E8N
4. A5E
5. D10T
6. K7Y
7. F19C

[1.78, 2.49, 2.53, 2.29, 1.59, 3.52, 2.04]
